targetOrSystem: GASC1 (Homo sapiens, UniProt Q9H3R0)
Construct: 6×His tagged recombinant GASC1 (N 350aa) was purified from E. Coli BL21(DE3); 6xHis
Sequence (Q9H3R0 1-350 limits assumed): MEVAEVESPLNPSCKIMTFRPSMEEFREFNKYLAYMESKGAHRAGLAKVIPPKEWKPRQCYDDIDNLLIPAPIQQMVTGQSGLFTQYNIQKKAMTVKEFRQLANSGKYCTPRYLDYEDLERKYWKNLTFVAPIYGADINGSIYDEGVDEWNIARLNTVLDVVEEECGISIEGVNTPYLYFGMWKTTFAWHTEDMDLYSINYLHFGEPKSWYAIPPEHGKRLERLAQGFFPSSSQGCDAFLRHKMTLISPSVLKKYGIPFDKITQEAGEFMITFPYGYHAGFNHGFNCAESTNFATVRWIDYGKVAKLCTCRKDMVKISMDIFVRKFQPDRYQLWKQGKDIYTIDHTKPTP
methodNotes: GASC1 demethylation assay on H3K9Me3 peptide (RapidFire HT-MS)
experimentalContext: read-out: GASC1 Inhibition
pIC50: −log10 of the molar value.
reportedProperty: pIC50

As a guide, the following entries are already answered.
CCc1c(COC)[nH]c2c(C#N)c(C)nn2c1=O :: 5.00 to 6.00
COCCOc1c2c(nc3c(C#N)cnn13)CCCC2 :: ≤ 4.30
Cc1nn2c(=O)c3c([nH]c2c1C#N)CCCC3 :: 4.30 to 5.00
CCc1c2n(c3c(C#N)cnn3c1=O)CCC2 :: ≤ 4.30
CCNC(=O)c1[nH]c2c(C#N)cnn2c(=O)c1CC :: 5.00 to 6.00
COc1c2c(nc3c(C#N)cnn13)CCCC2 :: 5.00 to 6.00

In: // fetch GASC1 (Homo sapiens, UniProt Q9H3R0) pIC50 for CCc1c(C(C)O)[nH]c2c(C#N)cnn2c1=O (centres unmarked)
Out: 5.00 to 6.00

In: # value lookup — system GASC1 (Homo sapiens, UniProt Q9H3R0), readout pIC50, item "CCc1c(C(=O)OCc2ccccc2)[nH]c2c(C#N)cnn2c1=O"
Out: 5.00 to 6.00

In: Look up pIC50 with GASC1 (Homo sapiens, UniProt Q9H3R0) for this compound: "CCc1c(C(F)(F)F)[nH]c2c(C#N)cnn2c1=O"
Out: ≥ 6.00

In: Lab request: please report pIC50 under test system GASC1 (Homo sapiens, UniProt Q9H3R0) for "CCc1c(CCCOC)[nH]c2c(C#N)cnn2c1=O"
Out: 5.00 to 6.00

In: Lab request: please report pIC50 under test system GASC1 (Homo sapiens, UniProt Q9H3R0) for "Cc1[nH]c2c(C#N)cnn2c(=O)c1CC(C)C"
Out: 5.00 to 6.00

----------
targetOrSystem: KDM5A (Homo sapiens)
Construct: Full length KDM5A enzyme was expressed and purified inhouse; made in house
Sequence (P29375 whole entry): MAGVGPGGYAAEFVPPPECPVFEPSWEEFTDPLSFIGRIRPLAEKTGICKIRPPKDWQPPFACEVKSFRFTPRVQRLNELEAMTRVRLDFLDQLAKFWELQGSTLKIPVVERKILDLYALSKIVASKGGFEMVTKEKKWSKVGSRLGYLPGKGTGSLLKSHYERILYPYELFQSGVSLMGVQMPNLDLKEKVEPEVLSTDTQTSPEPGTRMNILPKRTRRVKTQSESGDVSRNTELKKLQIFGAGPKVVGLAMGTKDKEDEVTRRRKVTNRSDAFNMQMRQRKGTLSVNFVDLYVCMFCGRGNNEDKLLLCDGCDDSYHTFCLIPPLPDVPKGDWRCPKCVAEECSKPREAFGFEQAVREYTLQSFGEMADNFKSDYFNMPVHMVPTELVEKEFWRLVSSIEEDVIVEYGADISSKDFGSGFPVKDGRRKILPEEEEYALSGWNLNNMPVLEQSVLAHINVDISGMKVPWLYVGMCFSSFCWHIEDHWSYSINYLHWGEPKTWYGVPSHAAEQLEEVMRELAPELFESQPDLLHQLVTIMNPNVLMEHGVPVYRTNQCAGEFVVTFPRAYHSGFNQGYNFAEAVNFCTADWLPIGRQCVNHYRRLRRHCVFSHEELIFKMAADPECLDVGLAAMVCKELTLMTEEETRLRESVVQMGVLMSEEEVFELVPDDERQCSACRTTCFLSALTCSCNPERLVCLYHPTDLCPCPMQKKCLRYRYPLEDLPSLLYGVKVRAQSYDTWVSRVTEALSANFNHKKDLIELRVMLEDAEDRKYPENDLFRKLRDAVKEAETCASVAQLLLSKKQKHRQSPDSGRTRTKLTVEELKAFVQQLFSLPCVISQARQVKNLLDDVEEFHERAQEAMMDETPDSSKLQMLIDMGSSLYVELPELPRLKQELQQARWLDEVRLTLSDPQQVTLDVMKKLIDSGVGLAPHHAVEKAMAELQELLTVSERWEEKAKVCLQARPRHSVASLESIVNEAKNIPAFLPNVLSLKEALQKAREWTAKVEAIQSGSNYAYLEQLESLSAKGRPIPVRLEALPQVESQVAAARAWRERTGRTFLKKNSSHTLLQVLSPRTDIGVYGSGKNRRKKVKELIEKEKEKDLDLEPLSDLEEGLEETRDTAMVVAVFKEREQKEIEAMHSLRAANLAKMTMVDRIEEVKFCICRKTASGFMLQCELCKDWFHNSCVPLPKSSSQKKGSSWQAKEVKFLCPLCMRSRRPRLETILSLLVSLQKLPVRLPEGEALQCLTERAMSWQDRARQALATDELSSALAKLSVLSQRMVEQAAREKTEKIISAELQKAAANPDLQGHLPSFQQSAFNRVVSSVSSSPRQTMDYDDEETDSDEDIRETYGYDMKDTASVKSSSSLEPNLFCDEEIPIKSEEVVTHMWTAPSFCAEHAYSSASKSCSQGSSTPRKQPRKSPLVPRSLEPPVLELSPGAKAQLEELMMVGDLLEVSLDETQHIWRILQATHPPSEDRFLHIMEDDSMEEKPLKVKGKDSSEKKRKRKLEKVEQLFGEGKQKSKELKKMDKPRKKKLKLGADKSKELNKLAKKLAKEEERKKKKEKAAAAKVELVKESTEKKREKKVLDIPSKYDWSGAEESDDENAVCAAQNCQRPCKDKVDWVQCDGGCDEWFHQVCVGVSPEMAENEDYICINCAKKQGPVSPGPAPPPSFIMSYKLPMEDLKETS
methodNotes: KDM5 enzyme assay, KDM5A HTRF (Example 463)
Type: biochemical
experimentalContext: compounds of Examples 1-432; read-out: Example 463 Assay KDM5A HTRF IC50
pIC50: −log10 of the molar value.
reportedProperty: pIC50

Use the examples below as a reference point.
CC(C)c1c(-c2ccnn2C)[nH]c2c(C#N)cnn2c1=O [Example 77] :: 7.92
CC(C)c1c(-c2ccccc2F)n(C)c2c(C#N)cnn2c1=O [Example 174] :: 7.09
CC(C)c1c(-c2cnn(C(C)(C)CF)c2)[nH]c2c(C#N)cnn2c1=O [Compound 396] :: 7.47
CCOC(=O)c1c(CC)c(=O)n2ncc(C#N)c2n1C [Example 199] :: 6.74
CC(C)c1c(-c2cccc(-n3cccn3)c2)[nH]c2c(C#N)cnn2c1=O [Example 270] :: 7.89
CCC(=O)N1CC=C(c2[nH]c3c(C#N)cnn3c(=O)c2C(C)C)CC1 [Example 238] :: 7.31
CC(C)c1c(-c2ccc(C3CC3)o2)[nH]c2c(C#N)cnn2c1=O [Example 52] :: 8.24
CC(C)c1c(-c2cnn(CCN(C)C)c2)[nH]c2c(C#N)cnn2c1=O [Example 149] :: 8.22

1. COc1ccc(-c2[nH]c3c(C#N)cnn3c(=O)c2C(C)C)cc1C [Example 120]
2. COc1ccccc1Cn1cc(-c2[nH]c3c(C#N)cnn3c(=O)c2C(C)C)cn1 [Example 115]
3. COc1cc(OC)cc(-c2[nH]c3c(C#N)cnn3c(=O)c2C(C)C)c1 [Example 261]
4. CC(C)c1c(-c2cnn(C)c2)[nH]c2c(C#N)cnn2c1=O [Example 85]
In: Reorder: pIC50, max to min. Give the labels in the order specified.
Out: 2, 4, 1, 3

I. CNC(=O)C(C)(C)n1cc(-c2[nH]c3c(C#N)cnn3c(=O)c2C(C)C)cn1 [Example 13]
II. Cc1cc(C)cc(-c2[nH]c3c(C#N)cnn3c(=O)c2C(C)C)c1 [Compound 398]
III. N#Cc1cnn2c(=O)c(C3CCC3)c(-c3ccccc3)[nH]c12 [Example 34]
IV. CC(C)c1c(-c2ccc(C(C)(C)O)cc2)[nH]c2c(C#N)cnn2c1=O [Example 274]
In: Falling order of pIC50, please. List labels; respect the requested ordering.
Out: III, I, II, IV
(III: 8.02, I: 7.64, II: 7.39, IV: 7.14)

I. CNC(=O)c1cc(-c2[nH]c3c(C#N)cnn3c(=O)c2C(C)C)cn1C(C)C [Compound 416]
II. CC(C)c1c(-c2cnn(CC(F)(F)F)c2)[nH]c2c(C#N)cnn2c1=O [Example 156]
III. CCc1c(Cl)[nH]c2c(C#N)cnn2c1=O [Example 2]
In: Give the ascending ranking of the items by reported pIC50. Labels, ranked as asked.
Out: I, II, III
